The reported measurements were obtained from patent US9896445B2.

- target_system: ERK2 (Homo sapiens, UniProt P28482)
- Construct: purchased Jubilant Biosys
- Sequence (P28482 whole entry): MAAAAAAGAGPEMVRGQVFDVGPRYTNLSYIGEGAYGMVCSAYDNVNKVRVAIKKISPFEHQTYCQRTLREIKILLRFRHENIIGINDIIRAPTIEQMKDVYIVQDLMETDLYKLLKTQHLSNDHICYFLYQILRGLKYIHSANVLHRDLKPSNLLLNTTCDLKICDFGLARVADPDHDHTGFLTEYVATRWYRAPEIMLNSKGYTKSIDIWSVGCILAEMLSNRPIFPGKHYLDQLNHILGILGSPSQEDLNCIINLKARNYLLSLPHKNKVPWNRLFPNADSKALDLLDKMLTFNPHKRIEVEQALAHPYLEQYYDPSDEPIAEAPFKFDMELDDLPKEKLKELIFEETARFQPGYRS
- test_name: ERK2 HTRF (biochemical) assay
- experimental_conditions: HTRF
parameter: IC50

compound	IC50
Cc1cnc(N[C@H]2CCOC2)nc1-n1cnc(C(=O)N[C@H](CO)c2cccc(Cl)c2)c1	≤ 50 nM
Cc1cnc(Nc2ccc3c(c2)OCO3)nc1-n1cc(C(=O)N[C@H](CO)c2cccc(Cl)c2)cn1	≤ 50 nM
Cc1cnc(NCC2CCCO2)nc1-n1ccc(C(=O)N[C@H](CO)c2cccc(Cl)c2)c1 (stereo partly shown)	50 to 100 nM
Cc1cnc(Nc2cccc3c2OC(F)(F)O3)nc1-n1ccc(C(=O)NC(CO)c2cccc(Cl)c2)c1 (stereo not shown)	≤ 50 nM
Cc1cnc(Nc2ccc(F)cc2Cl)nc1-n1cnc(C(=O)N[C@H](CO)c2cccc(Cl)c2)c1	≤ 50 nM
Cc1cnc(NC2CC2)nc1-n1cc(NC(=O)NC(CO)c2cccc(Cl)c2)cn1 (stereo not shown)	50 to 100 nM
Cc1cnc(NC2CCOCC2)nc1-n1cnc(C(=O)NCc2nccs2)c1	≤ 50 nM
O=C(NC(CO)c1ccccc1)c1ccn(-c2nc(Nc3ccc4c(c3)OCO4)ncc2F)c1 (stereo not shown)	≤ 50 nM

What measured IC50 goes with Cc1cnc(NC2CCOCC2)nc1-n1cnc(C(=O)NC(c2cccc(Cl)c2)C(C)O)c1 (stereo not shown) [Compound 253] ?
≤ 50 nM

What measured IC50 goes with Cc1cnc(NC2CCOCC2)nc1-n1cnc(C(=O)NC(CN)c2cccs2)c1 (stereo not shown) ?
≤ 50 nM

What measured IC50 goes with Cc1cnc(Nc2ccc(F)c(N3CCOCC3)c2)nc1-n1ccc(C(=O)NC(CO)c2cccc(Cl)c2)c1 (stereo not shown) ?
≤ 50 nM

What measured IC50 goes with Cc1cnc(Nc2ccc(N3CCC(N4CCNCC4)CC3)cc2)nc1-n1ccc(C(=O)NC(CO)c2ccccc2)c1 (stereo not shown) ?
100 to 500 nM

What measured IC50 goes with `O=C(Nc1cnn(-c2ccnc(N[C@H]3CC[C@H](O)CC3)n2)c1)N[C@H](CO)c1cccc(Cl)c1` ?
100 to 500 nM

====

- target_system: ERK1 (Homo sapiens)
- Construct: purchased Jubilant Biosys
- test_name: ERK1 HTRF (biochemical) assay
- experimental_conditions: HTRF
pIC50: −log10 of the molar value.
parameter: pIC50

See these solved cases before continuing.
compound	target_system	pIC50
Cc1cnc(Nc2ccnn2C)nc1-n1cnc(C(=O)N[C@H](CO)c2cccc(Cl)c2)c1 [Example 277]	ERK1 (Homo sapiens)	> 7.30
Cc1cnc(Nc2ccc3c(c2)OC(F)(F)O3)cc1-n1cnc(C(=O)NC(CN)Cc2ccccc2)c1 (centres unmarked) [Compound 99]	ERK1 (Homo sapiens)	6.30 to 7.00
Cc1cnc(Nc2ccc(F)cc2Cl)nc1-n1cc(NC(=O)NC(CO)c2cccc(Cl)c2)cn1 (centres unmarked) [Compound 36]	ERK1 (Homo sapiens)	6.30 to 7.00
Cc1cnc(N[C@H]2CCOC2)nc1-n1ccc(C(=O)N(C)C(CO)c2cccc(Cl)c2)c1 (some centres unmarked) [Compound 212]	ERK1 (Homo sapiens)	> 7.30
Cc1cnc(NC(CO)CO)nc1-n1cnc(C(=O)N[C@H](CO)c2cccc(Cl)c2)c1 [Example 260]	ERK1 (Homo sapiens)	> 7.30
Cc1cnc(Nc2ccc3c(c2)OC(F)(F)O3)cc1-n1ccc(C(=O)NC(CO)c2ccccc2)c1 (centres unmarked) [Compound 80]	ERK1 (Homo sapiens)	> 7.30

What measured pIC50 goes with Cc1cnc(Nc2ccc(F)cc2Cl)nc1-n1cc(C(=O)NC(CO)c2cccc(Cl)c2)cn1 (centres unmarked) [Compound 45] ?
> 7.30

What measured pIC50 goes with O=C(NC(CO)c1cccc(Cl)c1)c1cn(-c2ccnc(Nc3ccccc3)c2)cn1 (centres unmarked) [Compound 77] ?
> 7.30

====

- target_system: ERK1 (Homo sapiens)
- Construct: purchased Jubilant Biosys
- test_name: ERK1 HTRF (biochemical) assay
- experimental_conditions: HTRF
- Experimental: ERK1 and ERK2 HTRF (Biochemical) Assays These assays employed a homogeneous time resolved fluorescence (HTRF) technique. […] The plate was incubated at room temperature for 60 min with shaking. […] The IC50 values (half maximal inhibitory concentration values) were subsequently determined using a sigmoidal dose-response curve (variable slope) in GraphPad Prism® 5 software.
parameter: IC50

What measured IC50 goes with Cc1cnc(Nc2ccc3c(c2)OCO3)nc1-n1cc(NC(=O)NC(CO)c2cccc(Cl)c2)cn1 (stereo not shown) [Compound 37] ?
0.1 to 0.5 µM

What measured IC50 goes with Cc1cnc(Nc2ccc(F)cc2)nc1-n1cnc(C(=O)NC(CO)c2ccccc2)c1 (stereo not shown) [Compound 118] ?
0.05 to 0.1 µM

What measured IC50 goes with Cc1cnc(Nc2ccc3c(c2)OCO3)cc1-n1cnc(C(=O)NC(CO)c2cccc(Cl)c2)c1 (stereo not shown) [Compound 88] ?
< 0.05 µM

What measured IC50 goes with CC[C@@H](CO)Nc1ncc(C)c(-n2ccc(C(=O)N[C@H](CO)c3cccc(Cl)c3)c2)n1 [Compound 219] ?
< 0.05 µM

====

- target_system: ERK1 (Homo sapiens)
- Construct: purchased Jubilant Biosys
- test_name: ERK1 HTRF (biochemical) assay
- experimental_conditions: HTRF
pIC50: −log10 of the molar value.
parameter: pIC50

molecule	pIC50
O=C(NC(CO)c1cccc(Cl)c1)c1ccn(-c2ccnc(Nc3ccc(F)cc3Cl)n2)c1 (centres unmarked)	7.00 to 7.30

Now consider the entry below.
Query the reported pIC50 for ERK1 (Homo sapiens); item: Cc1cnc(Nc2ccc3c(c2)OCO3)nc1-n1ccc(C(=O)NC(CO)c2cc(Cl)cc(Cl)c2)c1 (centres unmarked)
> 7.30

====

- System: phospho-RSK1(S380)
- test_name: Phospho-RSK1(S380) ELISA assay in HT-29 cells
- Format: cell-based, human
- experimental_conditions: HT29 cells; read-out: Mechanist Cell Assay RSK1 Phos HT29 IC50
pIC50: −log10 of the molar value.
parameter: pIC50

What measured pIC50 goes with Cc1cnc(NC2CCOCC2)nc1-n1cnc(C(=O)NC(CN)c2cc(F)cc(Cl)c2)c1 (stereo not shown) ?
≥ 7.00

====

- target_system: ERK2 (Homo sapiens)
- Construct: purchased Jubilant Biosys
- test_name: ERK2 HTRF (biochemical) assay
- experimental_conditions: HTRF
parameter: IC50

See these solved cases before continuing.
compound	IC50
Cc1cnc(Nc2ccc(F)cc2Cl)nc1-n1ccc(C(=O)N[C@H](CO)c2cccc(Cl)c2)c1 [Compound 29]	≤ 50 nM
O=C(Nc1cnn(-c2nc(NC3CC3)ncc2F)c1)N[C@H](CO)c1cccc(Cl)c1	≤ 50 nM
Cc1cnc(Nc2ccc3c(c2)OC(C)(C)O3)nc1-n1ccc(C(=O)NC(CO)c2cccc(Cl)c2)c1 (stereo not shown)	≤ 50 nM

What measured IC50 goes with Cc1cnc(Nc2ccc(F)cc2)cc1-n1cnc(C(=O)NC(CN)c2ccccc2)c1 (single isomer, unassigned) [Compound 227] ?
≤ 50 nM

What measured IC50 goes with Cc1cnc(Nc2ccc3c(c2)OCO3)nc1-n1ccc(C(=O)NC(CO)c2cc(Cl)cc(Cl)c2)c1 (stereo not shown) ?
≤ 50 nM

What measured IC50 goes with `Cc1cnc(NC2CCOCC2)nc1-n1cnc(C(=O)NCc2cccc(Cl)c2CO)c1` ?
≤ 50 nM

What measured IC50 goes with Cc1cnc(Nc2ccc(F)cc2Cl)nc1-n1ccc(C(=O)NC(CN)c2cccc(Cl)c2)c1 (stereo not shown) ?
50 to 100 nM

What measured IC50 goes with `Cc1cccc([C@@H](CO)NC(=O)c2ccn(-c3nc(N[C@H]4CCOC4)ncc3C)c2)n1` ?
≤ 50 nM

====

Reported values of pIC50 for individual entries
- target_system: ERK1 (Homo sapiens, UniProt P27361)
- Construct: purchased Jubilant Biosys
- Sequence (P27361 whole entry): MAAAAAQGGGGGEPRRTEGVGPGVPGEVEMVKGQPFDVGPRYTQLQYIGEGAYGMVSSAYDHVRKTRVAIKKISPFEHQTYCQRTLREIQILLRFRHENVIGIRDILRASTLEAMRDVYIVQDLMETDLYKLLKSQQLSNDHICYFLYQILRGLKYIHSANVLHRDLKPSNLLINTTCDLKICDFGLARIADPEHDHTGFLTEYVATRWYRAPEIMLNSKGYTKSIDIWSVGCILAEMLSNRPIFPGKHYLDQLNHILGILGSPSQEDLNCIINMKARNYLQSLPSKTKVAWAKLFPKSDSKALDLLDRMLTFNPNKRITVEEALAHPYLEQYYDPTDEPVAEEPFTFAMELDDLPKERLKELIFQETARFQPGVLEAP
- test_name: ERK1 HTRF (biochemical) assay
- experimental_conditions: HTRF
pIC50: −log10 of the molar value.

See these solved cases before continuing.
compound	observed_result
Cc1cnc(Nc2ccc(C3CCNCC3)cc2)nc1-n1ccc(C(=O)NC(CO)c2cccc(Cl)c2)c1 (centres unmarked)	7.00 to 7.30
COc1cc(Nc2ncc(C)c(-n3ccc(C(=O)NC(CO)c4ccccc4)c3)n2)ccc1F (centres unmarked)	> 7.30
Cc1cn(-c2ccnc(Nc3ccccc3)c2)cc1C(=O)N[C@H](CO)c1cccc(Cl)c1	7.00 to 7.30
Cc1cnc(NC2CCOCC2)nc1-n1cnc(C(=O)NCc2ccccc2CCO)c1 [Compound 243]	> 7.30
Cc1cnc(Nc2ccc(F)c(N3CCOCC3)c2)nc1-n1ccc(C(=O)NC(CO)c2cccc(Cl)c2)c1 (centres unmarked)	> 7.30

What measured pIC50 goes with `Cc1cnc(Nc2ccnn2C)nc1-n1cnc(C(=O)N[C@H](CN)c2cccc(Cl)c2)c1` ?
> 7.30

What measured pIC50 goes with Cc1cnc(Nc2ccc(F)cc2)nc1-n1cnc(C(=O)NC(CO)c2cccc(Cl)c2)c1 (centres unmarked) ?
> 7.30

What measured pIC50 goes with `Cc1cnc(N[C@H]2CCOC2)nc1-n1cnc(C(=O)N[C@H](CO)c2cccc(Cl)c2)c1` ?
> 7.30
